In this section we review reported pEC50 values for a set of compounds.
- ASSAY_SYSTEM: human GLP1R (Homo sapiens)
- Sequence (P43220 24-463): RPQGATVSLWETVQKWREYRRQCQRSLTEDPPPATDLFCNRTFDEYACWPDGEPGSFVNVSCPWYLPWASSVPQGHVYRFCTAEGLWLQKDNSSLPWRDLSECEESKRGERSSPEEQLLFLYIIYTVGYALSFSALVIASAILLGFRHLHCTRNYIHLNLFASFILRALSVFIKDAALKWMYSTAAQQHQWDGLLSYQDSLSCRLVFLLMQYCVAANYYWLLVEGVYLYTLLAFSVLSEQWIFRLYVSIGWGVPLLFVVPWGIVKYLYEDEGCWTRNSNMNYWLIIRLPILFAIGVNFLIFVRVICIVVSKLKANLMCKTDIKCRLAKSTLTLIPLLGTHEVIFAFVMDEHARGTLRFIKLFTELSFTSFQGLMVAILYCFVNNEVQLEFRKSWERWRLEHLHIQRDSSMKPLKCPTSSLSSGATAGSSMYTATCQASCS
- TEST_DETAILS: Luciferase reporter assay, HEK293/CRE-Luc/hGLP1R cells (Example 11)
- Assay type: cell-based
- Design: engineered to express full-length human GLP1R, cynomolgus GLP1R; expressed in transfected cells; host or cells: HEK293/CRE-Luc
- ASSAY_SETUP: Table 11; Experiment A
Where a SMILES comes first, the peptide text is derived from it. [ ]: non-standard residue; d: D form. The star is where a group is joined. Bip(2'-Et,4'-O(CH2)4NH2) = CCc1cc(OCCCCN)ccc1-c1ccc(C[C@H](N)C(=O)O)cc1; Nva(5-(3,5-Me2Ph)) = Cc1cc(C)cc(CCC[C@H](N)C(=O)O)c1; Ala(1H-tetrazol-5-yl) = N[C@@H](Cc1nnn[nH]1)C(=O)O; αMePhe(2-F) = C[C@](N)(Cc1ccccc1F)C(=O)O; X1 = O=C(CCCCCc1cnc[nH]1)*; X4 = CC(C)(C(=O)O)C(=O)*
In simple prose, pEC50 is minus the logarithm base ten of a concentration in moles per litre.

- COMPOUND: "CCc1cc(OCCCCN)ccc1-c1ccc(C[C@H](NC(=O)[C@H](CC(=O)O)NC(=O)[C@H](CO)NC(=O)[C@@H](NC(=O)[C@](C)(Cc2ccccc2F)NC(=O)[C@@H](NC(=O)CNC(=O)[C@H](Cc2nn[nH]n2)NC(=O)C(C)(C)C(=O)O)[C@@H](C)O)[C@@H](C)O)C(=O)N[C@@H](CCCc2cc(C)cc(C)c2)C(N)=O)cc1 [P3] (X4-[Ala(1H-tetrazol-5-yl)]GT[αMePhe(2-F)]TSD[Bip(2'-Et,4'-O(CH2)4NH2)][Nva(5-(3,5-Me2Ph))]-NH2)"
  pEC50: 8.71
- COMPOUND: "CCc1cc(OCCCCN)ccc1-c1ccc(C[C@H](NC(=O)[C@H](CC(=O)O)NC(=O)[C@H](CO)NC(=O)[C@@H](NC(=O)[C@](C)(Cc2ccccc2F)NC(=O)[C@@H](NC(=O)CNC(=O)[C@H](CCC(N)=O)NC(=O)C(C)(C)C(=O)NCCc2cnc[nH]2)[C@@H](C)O)[C@@H](C)O)C(=O)N[C@@H](CCCc2cc(C)cc(C)c2)C(N)=O)cc1"
  pEC50: 9.13
- COMPOUND: "CCc1cc(OCCCCN)ccc1-c1ccc(C[C@H](NC(=O)[C@H](CC(=O)O)NC(=O)[C@H](CO)NC(=O)[C@@H](NC(=O)[C@](C)(Cc2ccccc2F)NC(=O)[C@@H](NC(=O)CNC(=O)[C@H](Cc2nn[nH]n2)NC(=O)CCCCCc2cnc[nH]2)[C@@H](C)O)[C@@H](C)O)C(=O)N[C@@H](CCCc2cc(C)cc(C)c2)C(N)=O)cc1 [P11] (X1-[Ala(1H-tetrazol-5-yl)]GT[αMePhe(2-F)]TSD[Bip(2'-Et,4'-O(CH2)4NH2)][Nva(5-(3,5-Me2Ph))]-NH2)"
  pEC50: 9.16
- COMPOUND: "CCc1cc(OCCCCN)ccc1-c1ccc(C[C@H](NC(=O)[C@H](CC(=O)O)NC(=O)[C@H](CO)NC(=O)[C@@H](NC(=O)[C@](C)(Cc2ccccc2F)NC(=O)[C@@H](NC(=O)CNC(=O)[C@H](Cc2nn[nH]n2)NC(=O)[C@H](C)NC(=O)[C@@H](N)Cc2cnc[nH]2)[C@@H](C)O)[C@@H](C)O)C(=O)N[C@@H](CCCc2cc(C)cc(C)c2)C(N)=O)cc1 [P10] (H-HA[Ala(1H-tetrazol-5-yl)]GT[αMePhe(2-F)]TSD[Bip(2'-Et,4'-O(CH2)4NH2)][Nva(5-(3,5-Me2Ph))]-NH2)"
  pEC50: 10.85

Here's the next entry for you.
Look up pEC50: CCc1cc(OCCCCN)ccc1-c1ccc(C[C@H](NC(=O)[C@H](CC(=O)O)NC(=O)[C@H](CO)NC(=O)[C@@H](NC(=O)[C@](C)(Cc2ccccc2F)NC(=O)[C@@H](NC(=O)CNC(=O)[C@H](Cc2nn[nH]n2)NC(=O)[C@@]2(C)CCN(CCc3cnc[nH]3)C2=O)[C@@H](C)O)[C@@H](C)O)C(=O)N[C@@H](CCCc2cc(C)cc(C)c2)C(N)=O)cc1
10.88
